Biological target: FGFR3 kinase (Homo sapiens (Human), UniProt P22607, K650E)
Sequence (P22607 23-806 K650E): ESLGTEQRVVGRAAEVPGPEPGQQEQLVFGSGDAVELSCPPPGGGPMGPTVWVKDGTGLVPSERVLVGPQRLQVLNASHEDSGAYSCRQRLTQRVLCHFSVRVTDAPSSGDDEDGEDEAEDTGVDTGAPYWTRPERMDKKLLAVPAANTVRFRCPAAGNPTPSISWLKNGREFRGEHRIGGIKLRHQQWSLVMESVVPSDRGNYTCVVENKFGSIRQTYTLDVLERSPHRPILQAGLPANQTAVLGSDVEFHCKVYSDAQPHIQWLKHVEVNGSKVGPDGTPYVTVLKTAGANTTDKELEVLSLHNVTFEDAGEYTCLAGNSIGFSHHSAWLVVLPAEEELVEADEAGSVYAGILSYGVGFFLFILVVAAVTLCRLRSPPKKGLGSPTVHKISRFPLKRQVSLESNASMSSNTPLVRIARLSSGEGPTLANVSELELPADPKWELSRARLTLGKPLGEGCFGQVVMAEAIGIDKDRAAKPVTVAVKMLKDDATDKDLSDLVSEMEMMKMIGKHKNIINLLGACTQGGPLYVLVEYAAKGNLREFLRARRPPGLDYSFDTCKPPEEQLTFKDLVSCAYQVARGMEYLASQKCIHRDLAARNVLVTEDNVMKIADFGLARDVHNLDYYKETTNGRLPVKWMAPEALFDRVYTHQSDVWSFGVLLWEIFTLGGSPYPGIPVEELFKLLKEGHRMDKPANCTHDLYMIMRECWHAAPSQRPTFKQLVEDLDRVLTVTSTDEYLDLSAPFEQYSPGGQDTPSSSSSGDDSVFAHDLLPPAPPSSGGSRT
Experiment: FGFR3 kinase inhibition (protein kinase activity assays)
Format: biochemical
Conditions: read-out: rating (FGFR3 kinase IC50)
measurement.label: IC50

COc1cc(OC)c(Cl)c(-c2ccc(C(=O)Nc3cccnc3)c3ncc(N(C)CCN(C)C)nc23)c1Cl: 500 to 50000 nM
CCN1CCN(Cc2ccc(NC(=O)c3ccc(-c4cc(OC)cc(OC)c4)c4nccnc34)nc2)CC1: 500 to 50000 nM
COc1cc(OC)c(F)c(-c2ccc(C(=O)Nc3nc(CN4CCN(C)CC4)c[nH]3)c3nccnc23)c1F: < 100 nM
COc1cc(OC)c(Cl)c(-c2ccc(C(=O)Nc3ccc(CN4CCNCC4)nc3)c3ncccc23)c1Cl: 500 to 50000 nM
COc1cc(OC)c(F)c(-c2ccc(C(=O)Nc3cccnc3)c3nccnc23)c1F: 100 to 500 nM

So what's the measured IC50 for this one? CCN1CCN(Cc2ccc(NC(=O)c3ccc(-c4c(Cl)c(OC)cc(OC)c4Cl)c4cccnc34)cn2)CC1
100 to 500 nM

COc1cc(OC)c(Cl)c(-c2ccc(C(=O)Nc3ccc(N(C)C4CCN(C)CC4)nc3)c3nccnc23)c1Cl , same question.
< 100 nM

---

Below is a list of entries, each paired with its recorded IC50 value.
Target: FGFR3 kinase (Homo sapiens (Human), UniProt P22607, K650E)
Experiment: FGFR3 kinase inhibition (protein kinase activity assays)
Type: biochemical
Conditions: read-out: rating (FGFR3 kinase IC50)

COc1cc(OC)c(Cl)c(-c2ccc(C(=O)Nc3ncc[nH]3)c3ncccc23)c1Cl [Example 161]: < 100 nM
COc1cc(OC)c(Cl)c(-c2ccc(C(=O)Nc3ccc(O)cc3)c3nccnc23)c1Cl [Example 7]: 500 to 50000 nM
COc1cc(OC)c(F)c(-c2ccc(C(=O)Nc3ccc(CN4CCN(C)CC4)nc3)c3nccnc23)c1F [Example 89]: < 100 nM

Now, please, on to the next molecule.
Need IC50 of COc1cc(OC)c(Cl)c(-c2ccc(C(=O)Nc3ccc(CN4CCN(C)CC4)cn3)c3ncccc23)c1Cl [Example 164] , thanks.
< 100 nM
